Where these numbers come from: patent US20260083865A1

- Test system: PC3-PIP tumor model
- Design: species or system mice
- experimentalConditions: mouse, in vivo
Numbered stars: 1 amine (or outer) side, 2 acyl side, 3 side chain; on linkers, the order of the positions; unused ones are H or OH. Bridge positions count the residues as written; N and C are the ends. Square brackets hold non-standard residues; d marks the D form. Peptide text beside a SMILES is read from it. * marks the point of attachment. X3 = O=C(O)CN1CCN(CC(=O)O)CCN(CC(=O)NCCCOCCOCCOCCCN*)CCN(CC(=O)O)CC1; DOTA = O=C(O)CN1CCN(CC(=O)O)CCN(CC(=O)*)CCN(CC(=O)O)CC1; Phe(4-Cl) = N[C@@H](Cc1ccc(Cl)cc1)C(=O)O; Ethylenediamine = C(CN[*:2])N[*:1]; X1 = O=C(CC1CCN([*:1])CC1)[*:2]; Suc = O=C(CCC(=O)[*:2])[*:1]; Tle = CC(C)(C)[C@H](N)C(=O)O; Aib = CC(C)(N)C(=O)O; βAla = NCCC(=O)O
Each entry below lists one item and its recorded AUC ratio [T/K] value.
The response must contain the number and no unit.

[
  {
    "compound": "CC(=O)N[C@H](C(=O)NC(C)(C)C(=O)N[C@@H](Cc1ccc(Cl)cc1)C(=O)N[C@H]1CSSC[C@@H](C(=O)N[C@H](C(=O)NCCNC(=O)CN2CCN(CC(=O)O)CCN(CC(=O)O)CCN(CC(=O)O)CC2)C(C)(C)C)NC(=O)[C@H](CC(N)=O)NC(=O)C(C)(C)NC(=O)[C@H](CCCNC(=N)N)NC(=O)[C@H](CCCCN)NC1=O)[C@@H](C)O [PSM-0269] (Ac-T[Aib][Phe(4-Cl)]CKR[Aib]NC[Tle]-{Ethylenediamine-DOTA}; disulfide 4-9)",
    "AUC ratio [T/K]": 0.87
  },
  {
    "compound": "C[C@@H](O)[C@H](NC(=O)CN1CCN(CC(=O)O)CCN(CC(=O)O)CCN(CC(=O)O)CC1)C(=O)NC(C)(C)C(=O)N[C@@H](Cc1ccccc1)C(=O)N[C@H]1CSSC[C@@H](C(=O)N[C@H](C(=O)NCCN)C(C)(C)C)NC(=O)[C@H](CC(N)=O)NC(=O)C(C)(C)NC(=O)[C@H](CCCNC(=N)N)NC(=O)[C@H](CCCCN)NC1=O [PSM-0199] ({DOTA}-T[Aib]FCKR[Aib]NC[Tle]-Ethylenediamine; disulfide 4-9)",
    "AUC ratio [T/K]": 0.33
  },
  {
    "compound": "C[C@@H]1NC(=O)[C@H](CCCNC(=N)N)NC(=O)[C@H](CCCCN)NC(=O)[C@@H](NC(=O)[C@H](Cc2ccccc2)NC(=O)C(C)(C)NC(=O)[C@@H](NC(=O)CCC(=O)NCCCOCCOCCOCCCNC(=O)CN2CCN(CC(=O)O)CCN(CC(=O)O)CCN(CC(=O)O)CC2)[C@@H](C)O)CSSC[C@@H](C(=O)N[C@H](C(=O)N[C@H](C(N)=O)[C@@H](C)O)C(C)(C)C)NC(=O)[C@H](CC(N)=O)NC1=O [PSM-0237] ({X3-Suc}-T[Aib]FCKRANC[Tle]T-NH2; disulfide 4-9)",
    "AUC ratio [T/K]": 0.44
  },
  {
    "compound": "C[C@@H](O)[C@H](NC(=O)CC1CCN(C(=O)CN2CCN(CC(=O)O)CCN(CC(=O)O)CCN(CC(=O)O)CC2)CC1)C(=O)NC(C)(C)C(=O)N[C@@H](Cc1ccccc1)C(=O)N[C@H]1CSSC[C@@H](C(=O)N[C@H](C(=O)NCCC(N)=O)C(C)(C)C)NC(=O)[C@H](CC(N)=O)NC(=O)C(C)(C)NC(=O)[C@H](CCCNC(=N)N)NC(=O)[C@H](CCCCN)NC1=O [PSM-0449] ({DOTA}-[X1]T[Aib]FCKR[Aib]NC[Tle][βAla]-NH2; disulfide 5-10)",
    "AUC ratio [T/K]": 1.4
  }
]

Using the record for C[C@@H](O)[C@H](NC(=O)CC1CCN(C(=O)CN2CCN(CC(=O)O)CCN(CC(=O)O)CCN(CC(=O)O)CC2)CC1)C(=O)NC(C)(C)C(=O)N[C@@H](Cc1ccccc1)C(=O)N[C@H]1CSSC[C@@H](C(=O)N[C@H](C(=O)NCCN)C(C)(C)C)NC(=O)[C@H](CC(N)=O)NC(=O)C(C)(C)NC(=O)[C@H](CCCNC(=N)N)NC(=O)[C@H](CCCCN)NC1=O [PSM-0241] ({DOTA}-[X1]T[Aib]FCKR[Aib]NC[Tle]-Ethylenediamine; disulfide 5-10) , state its measured AUC ratio [T/K]. 0.54
